# Tested on: MCF-7 (Breast cancer)
# experiment-description: Sulforhodamine B cytotoxicity assay
# Format: cell-based
# conditions-used: Homo sapiens, MCF7; SRB, 48 hours incubation; read-out: Human cancer cell lines IC50 MCF-7 (Breast cancer)
# Procedure: The benzyl compounds were evaluated by Sulforhodamine B Assay as per reported method [Skehan etal., J. Natl. Cancer Inst.1990, 82, 1107]. […] Cells with viability of more than 98%, as determined by trypan blue exclusion, were used for determination of cytotoxicity. […] In vitro cytotoxicity against various human cancer cell lines was determined using 96-well cell culture plates. […] Cell growth was measured by staining with sulforhodamine B dye. […] The optical density (OD) was recorded on ELISA reader at 540nm. […]
Provide the recorded pIC50 for the entries that follow.
Note on pIC50: it is the negative log10 of concentration, concentration in mol/L.

[Q] # input compound: COc1cc(C2C(=Cc3ccc4c(c3)OCO4)C(=O)c3cc(OC)c(OC)c(OC)c32)cc(OC)c1OC (stereo not drawn) [Compound 12] ; wanted: its pIC50
[A] 8.00

[Q] # input compound: COc1cc(C2c3c(cc(OC)c(OC)c3OC)C(=O)C2Cc2ccc(F)cc2)cc(OC)c1OC (stereo not drawn) [Compound 4] ; wanted: its pIC50
[A] 4.35

[Q] # input compound: COc1ccc(CC2C(=O)c3cc(OC)c(OC)c(OC)c3C2c2cc(OC)c(OC)c(OC)c2)c(OC)c1 (stereo not drawn) [Compound 5] ; wanted: its pIC50
[A] 4.92

Data provenance: patent EP3322687B1
